- Test system: rodent lifetime carcinogenesis bioassay, tumor incidence TD50
- assay-name: carcinogenic potency in animals, long-term in vivo studies, CPDB compilation (AID 1745844)
- condition-context: mouse; strain BALB/c; females; in feed; site: several sites; sites named in the paper; lesion: squamous-cell carcinoma; dosed 86 weeks; study length 86 weeks
measured-attribute: TD50 (mg/kg/day)
Your answer should be a plain number; it is taken to be in mg/kg/day.

Measured TD50, C#C[C@]1(O)CC[C@H]2[C@@H]3CCc4cc(OC)ccc4[C@H]3CC[C@@]21C (tested in a mixture with another compound) : 2

---

- System: rodent lifetime carcinogenesis bioassay, tumor incidence TD50
- assay-name: carcinogenic potency in animals, long-term in vivo studies, CPDB compilation (AID 1745844)
- condition-context: rat; strain Fischer 344; females; by gavage; site: subcutaneous tissue; lesion: fibroma; dosed 103 weeks; study length 105 weeks
measured-attribute: TD50 (mg/kg/day)
Your answer should be a plain number; it is taken to be in mg/kg/day.

Measured TD50, C=C(C)CCl : 524
